// reported kon per item
- experimental system: T1, Monomeric 8-histidine tagged human EGFRvIII extracellular domain (human, UniProt P00533 298-645)
- T1 construct: Analyte in all SPR assays; not shown: 8-histidine tag
- procedure text: SPR, captured by anti-mouse Fc, 37 C

{"binder": "11F10 (antibody, V domains shown, Hybridoma supernatant (AlivaMab mouse); captured/detected via mouse Fc) VH: QVTLKESGPVLVKPIETLTLTCTVCGFSLSNPRMGVSWIRQPPGKALEWLGHIFSSDEKSYRLFLRSRLSISKDTSKSQVVLTMTNMDPVDTATYYCARDSSDYEGYFDYWGQGTLVTVSS VL: EIVMTQSPATLSVSPGERTTLSCRASQSVGSNLAWYQQKPGQAPRLLIYGASTRASGVPARFSGSGSGTEFTLTISSLQSEDFAVYSCQEYNNWPFTFGQGTKVEIK", "kon": "66300 M⁻¹ s⁻¹"}
{"binder": "12B2 (antibody, V domains shown, Hybridoma supernatant (AlivaMab mouse); captured/detected via mouse Fc) VH: QVTLKESGPVLVKPTETLTLTCTVSGFSLSNPRMGVSWIRQPPGKALEWLGHIFSSDEKSYRLSLRSRLSISKDTSKSQVVLTMTNMDPVDTATYYCVRDSSNYGGYFDYWGQGTLVTVSS VL: EVVMTQSPATLSVSPGERATLSCRASQSVINNLAWYQQKPGQAPRLLIYGTSTRATDIPARFSGSGSGTEFTLTISSLQSEDFAVYYCQDYNNWPFTFGPGTKVDIK", "kon": "73800 M⁻¹ s⁻¹"}
{"binder": "20B9 (antibody, V domains shown, Hybridoma supernatant (AlivaMab mouse); captured/detected via mouse Fc) VH: QVTLKESGPVLVKPTETLTLTCTVSGFSLSNARMGVSWIRQPPGKALEWLGHIFSTDEKSYSTSLRGRITISKDTSRGLVVLTLTNMDPVDTATYYCARDSSNYEGYFDFWGPGFLVTVSS VL: EIVMTQSPATLSVSPGERATLSCRVSQSIGANLAWYQQKFGQAPRLLIYGASTRATGIPVRFSGGGSGTEFTLTISSLQSEDFAIYSCQQYIYWPFTFGPGTTVDIK", "kon": "46700 M⁻¹ s⁻¹"}
{"binder": "49B11 (antibody, V domains shown, Hybridoma supernatant (AlivaMab mouse); captured/detected via mouse Fc) VH: QVTLKESGPVLVKPTETLTLTCTVSGFSLSNVRMGVSWIRQPPGKALEWFAHIFSSDEKSIRRSLRSRLTLSKDTSKSQVVLTMTNMDPVDTATYYCARDSSNYEGYFDYWGQGTLVTVSS VL: EMEVTQSPATLSVSPGERATLSCRASQNIGSDLAWYQQQSGQAPRLLISGASTRATGVPTRFSGSGSGTDFTLTITSLQSEDFAVYYCQQYNDWPFTFGPGTKVDIK", "kon": "76400 M⁻¹ s⁻¹"}
{"binder": "26B9 (antibody, V domains shown, Hybridoma supernatant (AlivaMab mouse); captured/detected via mouse Fc) VH: EVQLVESWGVLVKPGGSLRLSCAASGFIFNNAWMSWVRQAPGKGLEWIGRIKSKSDGGTTDYAAPVKDRFTISRDDSKDTLYLQMNGLKTEDTAVYFCTTAPGGPFDYWGQGTLVTVSS VL: DIVLTQSPLSLPVTPGEPASISCRSSQSLLHRDGFNYLDWFLQKPGQSPQLLIYLASSRASGVPDRFSGSDSGTDFTLKISRVEAEDVGVYYCMQALQTPITFGQGTRLEIK", "kon": "131000 M⁻¹ s⁻¹"}

FYI, the data here is from patent US20190144550A1.
